All figures here come from patent US10442793B2.

Molecular target: hERG potassium channel (Homo sapiens)
Construct: expressed in transfected cells; host or cells: HEK293
Sequence (Q12809 whole entry): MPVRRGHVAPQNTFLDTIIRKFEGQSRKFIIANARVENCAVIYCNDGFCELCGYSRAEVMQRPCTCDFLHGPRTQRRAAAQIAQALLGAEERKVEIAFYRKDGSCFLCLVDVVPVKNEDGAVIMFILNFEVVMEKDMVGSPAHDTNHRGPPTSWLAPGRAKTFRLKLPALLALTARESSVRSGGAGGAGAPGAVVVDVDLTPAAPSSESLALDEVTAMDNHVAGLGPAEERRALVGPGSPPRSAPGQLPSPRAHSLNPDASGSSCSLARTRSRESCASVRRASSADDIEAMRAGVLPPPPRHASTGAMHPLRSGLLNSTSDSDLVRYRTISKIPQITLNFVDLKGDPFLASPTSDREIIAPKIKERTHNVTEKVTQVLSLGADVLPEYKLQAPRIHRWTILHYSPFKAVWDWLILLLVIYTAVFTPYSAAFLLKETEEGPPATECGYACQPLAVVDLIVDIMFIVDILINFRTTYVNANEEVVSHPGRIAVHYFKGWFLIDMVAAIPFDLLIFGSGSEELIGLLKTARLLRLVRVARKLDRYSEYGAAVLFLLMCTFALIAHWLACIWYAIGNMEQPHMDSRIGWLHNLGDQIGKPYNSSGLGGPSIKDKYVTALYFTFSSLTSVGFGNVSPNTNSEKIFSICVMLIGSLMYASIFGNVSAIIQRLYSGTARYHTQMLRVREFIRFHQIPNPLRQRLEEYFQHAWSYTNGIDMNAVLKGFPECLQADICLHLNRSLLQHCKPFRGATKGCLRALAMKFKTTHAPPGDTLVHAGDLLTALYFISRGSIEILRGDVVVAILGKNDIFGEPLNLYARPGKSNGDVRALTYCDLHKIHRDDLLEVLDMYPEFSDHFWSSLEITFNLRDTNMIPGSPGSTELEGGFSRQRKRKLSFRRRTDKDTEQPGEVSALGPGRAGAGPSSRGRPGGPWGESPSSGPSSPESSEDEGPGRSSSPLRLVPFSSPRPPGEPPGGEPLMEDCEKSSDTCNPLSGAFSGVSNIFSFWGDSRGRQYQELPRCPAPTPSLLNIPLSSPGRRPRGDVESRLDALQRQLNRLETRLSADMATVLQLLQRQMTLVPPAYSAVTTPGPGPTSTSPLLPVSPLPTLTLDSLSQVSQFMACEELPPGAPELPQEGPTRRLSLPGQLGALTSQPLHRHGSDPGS
Test: Blocking of hERG potassium current, automatic patch clamp on HEK293-hERG cells
Type: cell-based
measured_parameter: pIC50
Just so you know, pIC50 here is -log10 of the concentration in molar units; reply with that number alone.

// known answers, use as guide
{"columns": ["molecule", "target_system", "measured_parameter", "meas_value"],
 "data": [
  ["COC[C@H]1CC[C@H](NCC[C@@]2(c3ccccn3)CCOC3(CCCC3)C2)c2ccccc21", "hERG potassium channel (Homo sapiens)", "pIC50", 5.42],
  ["O[C@H]1CC[C@H](NCC[C@@]2(c3ccccn3)CCOC3(CCCC3)C2)c2ccccc21", "hERG potassium channel (Homo sapiens)", "pIC50", 4.99],
  ["c1ccc([C@]2(CCN[C@H]3CCOc4ccccc43)CCOC3(CCCC3)C2)nc1 [Example 6]", "hERG potassium channel (Homo sapiens)", "pIC50", 5.42],
  ["O[C@@H]1CC[C@H](NCC[C@@]2(c3ccccn3)CCOC3(CCCC3)C2)c2ccccc21", "hERG potassium channel (Homo sapiens)", "pIC50", 4.87],
  ["CCO[C@H]1CC[C@H](NCC[C@@]2(c3ccccn3)CCOC3(CCCC3)C2)c2ccccc21", "hERG potassium channel (Homo sapiens)", "pIC50", 5.23]
]}

Name the reported pIC50 value associated with the molecule c1ccc([C@]2(CCN[C@H]3CCc4ccccc43)CCOC3(CCCC3)C2)nc1
5.00

Name the reported pIC50 value associated with the molecule O=C1CC[C@H](NCC[C@@]2(c3ccccn3)CCOC3(CCCC3)C2)c2ccccc21
5.39

---

This listing pairs compounds with measured Emax.
Biological target: μ-opioid receptors (MOR) (Homo sapiens)
Construct: host or cells: HEK293
Experiment: MOR activity test: HEK293/MOR/CRE luciferase reporter, agonizing MOR and affecting downstream cAMP levels
Format: cell-based
Details: HEK293; maximum effect of TRV-130 is 100%; read-out: Emax on agonizing MOR receptor and affecting cAMP levels
Experimental: The compounds of the present invention can activate μ-opioid receptors (MOR). […] Luciferase can react with its substrate to emit fluorescence, and the measured fluorescence signals reflect the agonistic activity of the compounds. […] The activity of the compounds of the present invention on agonizing MOR and affecting downstream cAMP levels was determined by the above test, and the EC50 values are shown in Table 1.1.
Record the value in %, omitting the unit from your answer.

Record excerpt, results attached:
{"columns": ["compound", "target_system", "output_unit", "meas_value"],
 "data": [
  ["c1ccc([C@]2(CCN[C@H]3CCOc4ccccc43)CCOC3(CCCC3)C2)nc1 (single isomer, unassigned) [Example 5]", "μ-opioid receptors (MOR) (Homo sapiens)", "%", 122],
  ["N#CCC1CC[C@H](NCC[C@@]2(c3ccccn3)CCOC3(CCCC3)C2)c2ccccc21 (some centres unmarked) [Example 32]", "μ-opioid receptors (MOR) (Homo sapiens)", "%", 133],
  ["CO[C@H]1CC[C@H](NCC[C@@]2(c3ccccn3)CCOC3(CCCC3)C2)c2ccccc21 [Example 14]", "μ-opioid receptors (MOR) (Homo sapiens)", "%", 109]
]}

Give the measured Emax of c1ccc([C@]2(CCN[C@H]3CCC4(SCCS4)c4ccccc43)CCOC3(CCCC3)C2)nc1 [Example 24] .
102

Quick one: Emax of c1ccc([C@]2(CCN[C@@H]3CCc4ccccc43)CCOC3(CCCC3)C2)nc1 [Example 15] ?
0

# query: Emax of entry FCCO[C@H]1CC[C@H](NCC[C@@]2(c3ccccn3)CCOC3(CCCC3)C2)c2ccccc21 [Example 21]
110

Sample c1ccc([C@]2(CCN[C@H]3CCc4ccccc43)CCOC3(CCCC3)C2)nc1 [Example 16] — what was its Emax?
122

Return reported Emax; argument: COC[C@@H]1CC[C@H](NCC[C@@]2(c3ccccn3)CCOC3(CCCC3)C2)c2ccccc21 [Example 23]
120

Using the record for Fc1ccc2c(c1)C(NCC[C@@]1(c3ccccn3)CCOC3(CCCC3)C1)CCO2 (some centres unmarked) [Example 8] , report its Emax.
114

Return reported Emax; argument: O[C@@H]1Cc2ccccc2[C@H]1NCC[C@@]1(c2ccccn2)CCOC2(CCCC2)C1 [Example 3]
124

Bench note: what Emax did O[C@@H]1CC[C@H](NCC[C@@]2(c3ccccn3)CCOC3(CCCC3)C2)c2ccccc21 [Example 13] show?
130

Quick one: Emax of O[C@H]1Cc2ccccc2[C@@H]1NCCC1(c2ccccn2)CCOC2(CCCC2)C1 (some centres unmarked) [Example 18] ?
4

Quick check: Emax of O=C1CC[C@H](NCC[C@@]2(c3ccccn3)CCOC3(CCCC3)C2)c2ccccc21 [Example 11] ?
112

Dear colleague, I am looking for the recorded Emax of the following compound: CO[C@H]1Cc2ccccc2[C@@H]1NCC[C@@]1(c2ccccn2)CCOC2(CCCC2)C1 [Example 17]
0

---

Below: a set of entries, each annotated with reported EC50.
Biological target: μ-opioid receptors (MOR) (Homo sapiens, UniProt P35372)
Construct: host or cells: HEK293
Sequence (P35372 whole entry): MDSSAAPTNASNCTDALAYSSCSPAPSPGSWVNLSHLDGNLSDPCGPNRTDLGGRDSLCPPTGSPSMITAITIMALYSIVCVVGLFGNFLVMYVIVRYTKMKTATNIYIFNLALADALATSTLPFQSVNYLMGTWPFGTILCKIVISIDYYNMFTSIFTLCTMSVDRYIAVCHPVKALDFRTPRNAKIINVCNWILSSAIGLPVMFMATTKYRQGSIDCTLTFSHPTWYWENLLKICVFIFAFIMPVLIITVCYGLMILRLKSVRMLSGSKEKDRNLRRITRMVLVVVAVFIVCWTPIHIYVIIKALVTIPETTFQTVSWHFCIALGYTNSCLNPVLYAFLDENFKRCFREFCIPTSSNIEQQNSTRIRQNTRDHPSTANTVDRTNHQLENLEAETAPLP
Experiment: MOR activity test: HEK293/MOR/CRE luciferase reporter, agonizing MOR and affecting downstream cAMP levels
Type: cell-based
Report the value in nM with no unit label.

{"columns": ["molecule", "meas_value"],
 "data": [
  ["c1ccc([C@]2(CCN[C@H]3CCOc4ccccc43)CCOC3(CCCC3)C2)nc1 (single isomer, unassigned) [Example 5]", 5]
]}

// returns reported EC50 for input COC[C@@H]1CC[C@H](NCC[C@@]2(c3ccccn3)CCOC3(CCCC3)C2)c2ccccc21 [Example 23]
5

Given the entry CCO[C@H]1CC[C@H](NCC[C@@]2(c3ccccn3)CCOC3(CCCC3)C2)c2ccccc21 [Example 19] , report its measured EC50.
2

So what does the record say about EC50 for O[C@H]1CC[C@H](NCC[C@@]2(c3ccccn3)CCOC3(CCCC3)C2)c2ccccc21 [Example 12] ?
2

Give its EC50 value. Item: CO[C@@H]1CC[C@H](NCC[C@@]2(c3ccccn3)CCOC3(CCCC3)C2)c2ccccc21 [Example 30]
2

---

Target: μ-opioid receptors (MOR) (Homo sapiens)
Construct: host or cells: HEK293
Assay: MOR activity test: HEK293/MOR/CRE luciferase reporter, agonizing MOR and affecting downstream cAMP levels
Assay type: cell-based
Conditions: HEK293/MOR/CRE cells, 5 h incubation, forskolin; read-out: EC50 on agonizing MOR receptor and affecting cAMP levels
measured_parameter: EC50 (nM)
# value in nM; strip the unit string

I have this molecule here, N#CCC1CC[C@H](NCC[C@@]2(c3ccccn3)CCOC3(CCCC3)C2)c2ccccc21 (stereo partly drawn) , and I need its recorded EC50.
0.8

Query: EC50; subject: N#CCO[C@H]1CC[C@H](NCC[C@@]2(c3ccccn3)CCOC3(CCCC3)C2)c2ccccc21
7

Give the measured EC50 of CCN1CC[C@H](NCC[C@@]2(c3ccccn3)CCOC3(CCCC3)C2)c2ccccc21 .
10

What value of EC50 has been reported for the following molecule? c1ccc([C@]2(CCN[C@H]3CCC4(SCCS4)c4ccccc43)CCOC3(CCCC3)C2)nc1
0.8

Find the recorded EC50 belonging to FCCO[C@H]1CC[C@H](NCC[C@@]2(c3ccccn3)CCOC3(CCCC3)C2)c2ccccc21 and report it.
5

---

Target: DOR receptor (Homo sapiens)
Construct: expressed in transfected cells; host or cells: HEK293
Sequence (P41143 whole entry): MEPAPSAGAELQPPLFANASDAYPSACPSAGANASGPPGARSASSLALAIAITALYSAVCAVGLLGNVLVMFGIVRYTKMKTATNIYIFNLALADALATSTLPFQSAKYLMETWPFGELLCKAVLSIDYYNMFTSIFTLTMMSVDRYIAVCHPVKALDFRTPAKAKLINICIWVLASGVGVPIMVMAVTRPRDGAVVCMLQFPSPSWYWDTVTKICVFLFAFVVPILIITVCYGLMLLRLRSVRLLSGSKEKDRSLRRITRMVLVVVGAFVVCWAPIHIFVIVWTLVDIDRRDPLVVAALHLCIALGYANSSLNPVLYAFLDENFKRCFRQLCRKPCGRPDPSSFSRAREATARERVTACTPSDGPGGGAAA
Assay: DOR activity test: HEK293/DOR/CRE luciferase reporter, cAMP levels
Type: cell-based
The reader will find reported pEC50 values listed item by item below.
Give only the number. pEC50 is defined as minus log10 of concentration in molar units.

{"columns": ["compound", "measured_parameter", "meas_value"],
 "data": [
  ["CCO[C@H]1CC[C@H](NCC[C@@]2(c3ccccn3)CCOC3(CCCC3)C2)c2ccccc21 [Example 19]", "pEC50", 6.26],
  ["COC[C@H]1CC[C@H](NCC[C@@]2(c3ccccn3)CCOC3(CCCC3)C2)c2ccccc21 [Example 22]", "pEC50", 5.62],
  ["O=C1CC[C@H](NCC[C@@]2(c3ccccn3)CCOC3(CCCC3)C2)c2ccccc21 [Example 11]", "pEC50", 5.72]
]}

// below: pEC50 requested for another compound
Param item = CO[C@H]1CC[C@H](NCC[C@@]2(c3ccccn3)CCOC3(CCCC3)C2)c2ccccc21 [Example 14] ; retrieve measured pEC50.
5.82

---

The reader will find reported Emax values listed item by item below.
Target: μ-opioid receptors (MOR) (Homo sapiens, UniProt P35372)
Construct: host or cells: HEK293
Test: MOR activity test: HEK293/MOR/CRE luciferase reporter, agonizing MOR and affecting downstream cAMP levels
Type: cell-based
Details: HEK293; maximum effect of TRV-130 is 100%; read-out: Emax on agonizing MOR receptor and affecting cAMP levels
Reply with just the number (in %).

These recorded examples may help you get a feel for the data.
{"columns": ["structure_notation", "Emax [%]"],
 "data": [
  ["N#CCO[C@H]1CC[C@H](NCC[C@@]2(c3ccccn3)CCOC3(CCCC3)C2)c2ccccc21", 112],
  ["CO[C@@H]1Cc2ccccc2[C@H]1NCC[C@@]1(c2ccccn2)CCOC2(CCCC2)C1", 129],
  ["COC[C@H]1CC[C@H](NCC[C@@]2(c3ccccn3)CCOC3(CCCC3)C2)c2ccccc21", 103],
  ["CCN1CC[C@H](NCC[C@@]2(c3ccccn3)CCOC3(CCCC3)C2)c2ccccc21", 102],
  ["CCO[C@H]1CC[C@H](NCC[C@@]2(c3ccccn3)CCOC3(CCCC3)C2)c2ccccc21", 98]
]}

Recorded Emax of O[C@H]1CC[C@H](NCC[C@@]2(c3ccccn3)CCOC3(CCCC3)C2)c2ccccc21 , please.
125

Which measured Emax value corresponds to c1ccc([C@]2(CCN[C@H]3CCCc4ccccc43)CCOC3(CCCC3)C2)nc1 ?
113

# query: Emax of entry c1ccc([C@]2(CCN[C@@H]3CCCc4ccccc43)CCOC3(CCCC3)C2)nc1
48
